subjectOfTest: AgSla1-D3
experimentalProtocol: SPOT peptide array binding signal intensity (averaged, normalized) (arbitrary units (background-subtracted, floor 0; scale differs between SH3 domains)); higher = stronger binding of the SH3 domain to the peptide
measureName: SPOT peptide array binding signal intensity

- binder: "MKRSRPSRSIPYTTP"
  readoutRelation: "≤"
  endpointValue: 0
- binder: "RKQRSIPLSPIVPES"
  readoutRelation: "="
  endpointValue: 3
- binder: "RSKRLFPVRPMATAH"
  readoutRelation: "="
  endpointValue: 10.2
- binder: "RPVPPPPPMRTTTEG"
  readoutRelation: "="
  endpointValue: 108
- binder: "HKVLRPFLLRRLKKD"
  readoutRelation: "="
  endpointValue: 2.75
- binder: "GATNNAPTLPKRKNP"
  readoutRelation: "="
  endpointValue: 0.75
- binder: "KRNRLKILLPFLEQS"
  readoutRelation: "="
  endpointValue: 12.5
- binder: "GERSRPLVISILSSA"
  readoutRelation: "="
  endpointValue: 5
- binder: "FYHRPAPKPPVTKKV"
  readoutRelation: "="
  endpointValue: 6.5
- binder: "QPQRTAPKPPISAPR"
  readoutRelation: "≤"
  endpointValue: 0
- binder: "RTRRRPPPPPIPSTQ"
  readoutRelation: "="
  endpointValue: 735
- binder: "PELAPKREAPKPPAN"
  readoutRelation: "="
  endpointValue: 3
- binder: "PVLPPPRSPNRPTLS"
  readoutRelation: "="
  endpointValue: 0.5
- binder: "PPIPIVPSSPAPPLP"
  readoutRelation: "≤"
  endpointValue: 0
- binder: "VAPPPLPNRQLPNLD"
  readoutRelation: "≤"
  endpointValue: 0
